Listed here are binders together with their documented Anti-CD28 Fab signal in the presence of CD28.
Molecular target: T1, Anti-CD28 Fab (SEQ ID NOs: 696, 697)
T1 construct: In the phage ELISA the Fab was biotinylated and captured on neutravidin coated plates
T1 sequence (VH, as listed by the source, chain 1 of 2): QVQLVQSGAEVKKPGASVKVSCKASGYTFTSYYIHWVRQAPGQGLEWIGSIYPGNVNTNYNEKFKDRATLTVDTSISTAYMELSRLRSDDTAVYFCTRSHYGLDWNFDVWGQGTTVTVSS
T1 sequence (VL, as listed by the source, chain 2 of 2): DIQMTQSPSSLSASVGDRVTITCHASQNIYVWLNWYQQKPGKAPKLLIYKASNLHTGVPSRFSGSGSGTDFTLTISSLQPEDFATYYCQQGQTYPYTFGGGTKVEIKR
Test: phage binding ELISA on captured anti-CD28 Fab; competitor: CD28 antigen
Where no end group is shown, it is not given here.

Look over these answered cases.
BINDER	OBSERVED_RESULT
YCDGHLPEYLWKCL (cysteine pairing not given here; also: displayed on phage by fusion to pIII, pIII and linker sequence not given here) [Phage-574]	0.13
YCDGHLPQYMMKCL (cysteine pairing not given here; also: displayed on phage by fusion to pIII, pIII and linker sequence not given here) [Phage-569]	0.14
YCEGHTPEYMQKCL [Phage-568]	0.07
YCDGHAPQYMQKCL [Phage-566]	0.11
YCDGHAAEYMAKCL (cysteine pairing not given here; also: displayed on phage by fusion to pIII, pIII and linker sequence not given here) [Phage-572]	0.13

Which Anti-CD28 Fab signal in the presence of CD28 is listed for YCEGHLGIYMYKCL (cysteine pairing not given here; also: displayed on phage by fusion to pIII, pIII and linker sequence not given here) [Phage-571] ?
0.14

Which Anti-CD28 Fab signal in the presence of CD28 is listed for YCEGHLPIYLEKCM [Phage-567] ?
0.1

Which Anti-CD28 Fab signal in the presence of CD28 is listed for YCEGHSPLYMWKCL (cysteine pairing not given here; also: displayed on phage by fusion to pIII, pIII and linker sequence not given here) [Phage-577] ?
0.06

Which Anti-CD28 Fab signal in the presence of CD28 is listed for YCEGHSQEYMSKCL (cysteine pairing not given here; also: displayed on phage by fusion to pIII, pIII and linker sequence not given here) [Phage-573] ?
0.07
